// provenance: ChEMBL document CHEMBL1138453

# protocol summary: Permeability from apical to basolateral side of the human Caco-2 membrane
# Format: ADME, cell-based
# protocol conditions: read-out: permeability
assay readout: Papp A→B (×10⁻⁶ cm/s)
Give bare numbers, in ×10⁻⁶ cm/s.

INPUT: For CC[C@H](C)CN1C(=O)c2ccccc2[C@@H](C(=O)O)[C@@H]1c1cc2ccccc2o1 , write its Papp A→B.
OUTPUT: 12

---

# protocol summary: Volume of distribution in iv dosed Sprague-Dawley rat
# Assay type: ADME, organism-based
# protocol conditions: in vivo
assay readout: Vd (L/kg)
Answers are plain numbers, in L/kg.

INPUT: For CC[C@H](C)CN1C(=O)c2ccccc2[C@@H](C(=O)O)[C@@H]1c1cc2ccccc2o1 , write its Vd.
OUTPUT: 1.1

---

# protocol summary: Half life in iv dosed Sprague-Dawley rat
# Assay type: ADME, organism-based
# protocol conditions: in vivo
assay readout: half-life (h)
Numbers only, in h.

INPUT: For CC[C@H](C)CN1C(=O)c2ccccc2[C@@H](C(=O)O)[C@@H]1c1cc2ccccc2o1 , write its half-life.
OUTPUT: 5.4

---

# Test system: Rattus norvegicus
# protocol summary: Clearance in iv dosed Sprague-Dawley rat
# Type: ADME, organism-based
# protocol conditions: in vivo
Can you tell me clearance for the items I'm about to list?
One number for each entry, in mL/min/kg.

Below, each entry is followed by its recorded clearance result.
CCCN1C(=O)c2ccccc2[C@@H](C(=O)O)[C@@H]1c1cccc(Cl)c1; 2.96
CCCN1C(=O)c2ccccc2[C@@H](C(=O)O)[C@@H]1c1cc2ccccc2o1; 3
CC[C@H](C)CN1C(=O)c2ccccc2[C@@H](C(=O)O)[C@@H]1c1cc2ccccc2o1; 4.3

INPUT: For CCCN1C(=O)c2ccccc2[C@@H](C(=O)O)[C@@H]1c1ccc(OCc2ccccc2)cc1 , write its clearance.
OUTPUT: 82.8

---

Can you tell me clearance for the items I'm about to list?
# System: Liver microsomes
# protocol summary: Metabolic stability in human liver microsomes assessed as clearance
# Format: ADME, Microsome
# protocol conditions: microsomes

CCCN1C(=O)c2ccccc2[C@@H](C(=O)O)[C@@H]1c1ccc(Oc2ccc(C)c(C)c2)cc1; < 8 µL/min/mg
CCCN1C(=O)c2ccccc2[C@@H](C(=O)O)[C@@H]1c1ccc(OCc2ccccc2)cc1; < 8 µL/min/mg

Please look at the following compound next.
INPUT: For CCN1C(=O)c2ccccc2[C@@H](C(=O)O)[C@@H]1c1ccc(Oc2ccccc2)cc1 , write its clearance.
OUTPUT: < 9 µL/min/mg

---

# protocol summary: Metabolic stability in human liver microsomes assessed as clearance
# Assay type: ADME, Microsome
# protocol conditions: liver microsomes
assay readout: microsomal CLint

INPUT: For CC[C@H](C)CN1C(=O)c2ccccc2[C@@H](C(=O)O)[C@@H]1c1cc2ccccc2o1 , write its microsomal CLint.
OUTPUT: < 8 µL/min/mg

---

# protocol summary: Drug level in bile of iv dosed bile duct cannulated rat
# Assay type: ADME, organism-based
# protocol conditions: read-out: Drug uptake
Can you tell me dose excreted for the items I'm about to list?
Numbers only, in %.

Below, each entry is followed by its recorded dose excreted result.
CCN1C(=O)c2ccccc2[C@@H](C(=O)O)[C@@H]1c1ccc(Oc2ccccc2)cc1; 13.9
CCCN1C(=O)c2ccccc2[C@@H](C(=O)O)[C@@H]1c1cnc(O[C@H]2CC[C@@H](C)CC2)nc1; 69.9

Go through the items and report each one's dose excreted.
1. CCCN1C(=O)c2ccccc2[C@@H](C(=O)O)[C@@H]1c1ccc(O[C@H]2CC[C@@H](C)CC2)cc1
2. CCCN1C(=O)c2ccccc2[C@@H](C(=O)O)[C@@H]1c1ccc(Oc2cc(Cl)cc(Cl)c2)cc1

OUTPUT:
1: 22.9; 2: 64.6
